The following molecules are listed with their measured melting point values.
Answer with the number, then the unit.

Examples from the recorded data:
molecule: CCCCCCCC [N-Octane]
melting point: -56.8 °C

molecule: CCCCC1(CC)C(=O)NC(=O)NC1=O [5-butyl-5-ethylbarbituric acid]
melting point: 128 °C

molecule: c1ccc(Cc2ccc(-c3ccccc3)cc2)cc1 [4-benzylbiphenyl]
melting point: 86 °C

molecule: O=C(O)/C(=C/c1ccc([N+](=O)[O-])cc1)c1ccc(F)cc1 [(E)-2-(4-Fluorophenyl)-3-(4-nitrophenyl)propenoic acid]
melting point: 242 °C

molecule: Cc1ccccc1O [o-Cresol]
melting point: 33 °C

molecule: OCC(CO)(CO)CO [Pentaerythritol]
melting point: 260 °C

molecule: CCOC(C)OCC [acetaldehyde diethyl acetal]
melting point: -100 °C

molecule: CC1=NC2=CCC=CC2=C1C#N [2-methyl-1H-indole-3-carbonitrile]
melting point: 213 °C

molecule: Oc1c(Cl)c(Cl)c(Cl)c(Cl)c1Cl [Pentachlorophenol]
melting point: 174 °C

molecule: C=C1CCC2CC1C2(C)C (configuration not stated) [b-pinene]
melting point: -61 °C

Turning now to a further record.
Query: What does the record list as melting point for CCSCC [diethyl sulfide] ?
Result: -104 °C

* * *

The following compounds are listed with their measured melting point values.
# value in °C; strip the unit string

Examples from the recorded data:
compound: O=C(O)c1ccc(-c2cccc([N+](=O)[O-])c2)cc1 [3'-nitrobiphenyl-4-carboxylic acid]
reportedEndpoint: melting point
scaleUnit: °C
valueReported: 314

compound: NC(=O)c1ccccc1-c1ccccc1 [o-phenylbenzamide]
reportedEndpoint: melting point
scaleUnit: °C
valueReported: 177

compound: c1ccc(-c2c3ccccc3c(-c3ccccc3)c3ccccc23)cc1 [9,10-Diphenylanthracene]
reportedEndpoint: melting point
scaleUnit: °C
valueReported: 249

compound: CC1(C)C(O)[C@H](Cl)[C@@H]2CC[C@H]1O2 (stereo partly specified)
reportedEndpoint: melting point
scaleUnit: °C
valueReported: 72

compound: O(c1ccccc1OC\C=C)CC(O)CNC(C)C (stereo unspecified) [oxprenolol]
reportedEndpoint: melting point
scaleUnit: °C
valueReported: 112

compound: c1cc2ccc3cccc4ccc(c1)c2c34 [Pyrene]
reportedEndpoint: melting point
scaleUnit: °C
valueReported: 151

compound: Cc1c(Cl)cccc1C#N [3-chloro-2-methylbenzonitrile]
reportedEndpoint: melting point
scaleUnit: °C
valueReported: 22

compound: Oc1ccccc1-c1ccccc1O [2,2'-dihydroxybiphenyl]
reportedEndpoint: melting point
scaleUnit: °C
valueReported: 109

compound: O=C(O)c1ccccc1O [salicylic_acid]
reportedEndpoint: melting point
scaleUnit: °C
valueReported: 160

compound: OCCCCO [Butane-1,4-diol]
reportedEndpoint: melting point
scaleUnit: °C
valueReported: 18

Turning now to a further record.
Query: What does the record list as melting point for CCCCCCC#N [heptanenitrile] ?
Result: -64

* * *

The following molecules are listed with their measured melting point values.
# value in °C; strip the unit string

Examples from the recorded data:
molecule: CC(=O)Nc1ccc(Br)cc1C [4'-bromo-2'-methylacetanilide]
scaleUnit: °C
melting point: 156
--
molecule: [O-]/[N+](=N\c1ccccc1)c1ccc(/N=N/c2ccc(/[N+]([O-])=N/c3ccccc3)cc2)cc1 [(E)-bis{4-[(Z)-phenyl-NNO-azoxy]phenyl}diazene]
scaleUnit: °C
melting point: 139

Query: What does the record list as melting point for `OCCN1CCN(CCCN2c3ccccc3Sc3ccc(Cl)cc32)CC1` ?
Result: 94

Query: What does the record list as melting point for NNC(=O)c1ccco1 [2-furohydrazide] ?
Result: 80

Query: What does the record list as melting point for Nc1ccc(C(=O)O)c(O)c1 [Aminosalicylic Acid] ?
Result: 150

* * *

reportedEndpoint: melting point (°C)
# value in °C; strip the unit string

Examples from the recorded data:
molecule: CC1(C)C(=O)OOC1=O
melting point, °C: 45

molecule: Clc1ccc(-c2nc3c4ccccc4ccn3n2)cc1
melting point, °C: 238

molecule: c1ccc(Oc2ccccc2)cc1 [phenyl_ether]
melting point, °C: 28

molecule: CC(N)=O [acetamide]
melting point, °C: 80

molecule: Oc1ccccc1I [2-Iodophenol]
melting point, °C: 38.5

Query: What does the record list as melting point for COC(=O)c1cccc(C(=O)OC)n1 [dimethyl pyridine-2,6-dicarboxylate] ?
Result: 121

Query: What does the record list as melting point for COC(=O)CCCCCCCCC(=O)OC [dimethyl sebacate] ?
Result: 27

Query: What does the record list as melting point for `Cc1cccc([N+](=O)[O-])c1` ?
Result: 16

* * *

reportedEndpoint: melting point (°C)
# value in °C; strip the unit string

Examples from the recorded data:
compound: CCC(=O)O [propanoic acid]
scaleUnit: °C
melting point: -20.7
//
compound: Cc1ccc(C)c(/C=C/C(=O)O)c1 [2,5-dimethylcinnamic acid]
scaleUnit: °C
melting point: 130
//
compound: c1ccc(P(c2ccccc2)c2ccccc2)cc1 [Triphenylphosphine]
scaleUnit: °C
melting point: 80.5

Query: What does the record list as melting point for COc1ccc2c(C(=O)c3ccc(Cl)cc3)c(C)n(CC(=O)O)c2c1 [clometacin] ?
Result: 242

Query: What does the record list as melting point for NC(=O)c1ccccc1OC(F)(F)F [2-(trifluoromethoxy)benzamide] ?
Result: 154

Query: What does the record list as melting point for Oc1ccccc1I [o-iodophenol] ?
Result: 42

* * *

Mark true (1) only when melting point stays strictly below 90 °C. Values equal to the cut-off are false (0).

Past entries and their recorded results:
molecule: N/N=C/c1ccccc1O [salicylaldehyde hydrazone]
categoryLabel: false (0)
//
molecule: O=C(c1ccc(Br)cc1)c1ccc(Br)cc1 [p,p'-dibromobenzophenone]
categoryLabel: false (0)
//
molecule: CC1(C)[C@@H]2CC[C@@]1(C)C(=O)C2=O [(1R)-camphorquinone]
categoryLabel: false (0)
//
molecule: O=Cc1ccc(N2CCCC2)c([N+](=O)[O-])c1 [3-nitro-4-(1-pyrrolidinyl)benzaldehyde]
categoryLabel: false (0)
//
molecule: CC(C)CC1=C/C(=C/c2ccc(-c3ccc(Br)cc3)o2)C(=O)O1
categoryLabel: false (0)
//
molecule: C[C@]12CC[C@H](O)[C@@H](O)[C@H]1CC[C@@H]1[C@@H]2CC[C@]2(C)C(=O)CC[C@@H]12 [(3beta,4alpha,5beta)-3,4-Dihydroxyandrostan-17-one]
categoryLabel: false (0)

Query: Just wondering, is melting point of CC(=O)CC(C)(C)O [4-hydroxy-4-methyl-2-pentanone] below 90 °C?
Result: true (1)

Query: Just wondering, is melting point of COc1cccc(OC)c1C [2,6-dimethoxytoluene] below 90 °C?
Result: true (1)

* * *

The following molecules are listed with their measured melting point values.
# value in °C; strip the unit string

Query: What does the record list as melting point for Cc1cccc2c(O)cc(C(F)(F)F)nc12 [4-hydroxy-8-methyl-2-(trifluoromethyl)quinoline] ?
Result: 128

Query: What does the record list as melting point for C=CC(C)CC (centres undefined) ?
Result: -153

Query: What does the record list as melting point for COc1ccc(C(=O)O)cc1 [4-Methoxybenzoic acid] ?
Result: 184

Query: What does the record list as melting point for CCOC(=O)C(C#N)=c1sc(=C(C#N)C(=O)OCC)s1 [DIETHYL 2,2'-(1,3-DITHIETANE-2,4-DIYLIDENE)BIS(CYANOACETATE)] ?
Result: 161

Query: What does the record list as melting point for `Cc1ccc(S)c(S)c1` ?
Result: 31

Query: What does the record list as melting point for `CC(C)(c1ccccc1)c1ccc(O)cc1` ?
Result: 72

* * *

The following compounds are listed with their measured melting point values.
# value in °C; strip the unit string

Examples from the recorded data:
compound: OCCOCCO
melting point (°C): -10
--
compound: CCN(CC)c1ccccc1 [N,N-diethylaniline]
melting point (°C): -38
--
compound: CCCCC#N [valeronitrile]
melting point (°C): -96
--
compound: c1cc(ccc1NC(=O)/C=CC(=O)O)F
melting point (°C): 208
--
compound: O=C(CCC(=O)Oc1ccccc1)Oc1ccccc1 [diphenyl succinate]
melting point (°C): 88
--
compound: Clc1cccc2c1=NC(c1ccccc1)C=2c1ccccc1 (stereo not drawn)
melting point (°C): 98
--
compound: Nc1cccc(-n2ccccc2=O)c1
melting point (°C): 183
--
compound: OCc1cc2ccccc2s1 [benzo[b]thiophene-2-methanol]
melting point (°C): 100

Query: What does the record list as melting point for `CC1(C)CC(=O)C(=NNc2ccccc2[N+](=O)[O-])C(=O)C1` ?
Result: 140

Query: What does the record list as melting point for CC(=O)CO [hydroxyacetone] ?
Result: -17

* * *

The following molecules are listed with their measured melting point values.
# value in °C; strip the unit string

Examples from the recorded data:
molecule: O=[N+]([O-])c1cc(I)c(O)c(I)c1
valueReported: 157
--
molecule: OCCCO
valueReported: -26
--
molecule: O=[N+]([O-])c1ccc(CBr)cc1 [4-nitrobenzyl bromide]
valueReported: 99

Query: What does the record list as melting point for `C1CSCCSCCNCCSCCSCCN1` ?
Result: 130

Query: What does the record list as melting point for `Brc1ccccc1-c1ccccc1` ?
Result: 2
